Target: PKR(R510Q) (Homo sapiens, UniProt P30613, R510Q)
Sequence (P30613 whole entry R510Q): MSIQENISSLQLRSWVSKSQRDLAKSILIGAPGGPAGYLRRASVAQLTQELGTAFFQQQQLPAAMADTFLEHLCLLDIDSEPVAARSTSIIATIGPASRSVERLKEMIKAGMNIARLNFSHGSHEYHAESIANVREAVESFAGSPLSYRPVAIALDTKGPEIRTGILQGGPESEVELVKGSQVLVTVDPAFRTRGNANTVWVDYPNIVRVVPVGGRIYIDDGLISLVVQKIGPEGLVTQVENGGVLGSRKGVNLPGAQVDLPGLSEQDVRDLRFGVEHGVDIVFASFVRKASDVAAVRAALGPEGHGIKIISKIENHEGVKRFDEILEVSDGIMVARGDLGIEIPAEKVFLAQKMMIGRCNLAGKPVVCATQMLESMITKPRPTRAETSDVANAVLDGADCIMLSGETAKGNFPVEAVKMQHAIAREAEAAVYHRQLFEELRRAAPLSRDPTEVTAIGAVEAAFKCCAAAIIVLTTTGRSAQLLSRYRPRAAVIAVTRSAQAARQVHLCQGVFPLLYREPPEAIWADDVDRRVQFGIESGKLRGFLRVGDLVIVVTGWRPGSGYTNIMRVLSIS
Assay: Luminescence Biochemical Assay (Kinase Glo Plus), PKR R510Q mutant
Details: without FBP, read-out: AC50 LUM KGP woFBP AC50 μM gmean
Kindly state AC50 for each of the entries shown.

Input: Which AC50 is listed for O=C(NCc1cccnc1)N1CC2=C(C1)CN(S(=O)(=O)c1ccc3ncsc3c1)C2 ?
Output: 1 to 40 µM

Input: Entry under review: O=C(Cn1cnnn1)N1CC2=C(C1)CN(S(=O)(=O)c1ccc(OC(F)F)cc1)C2 . Reported AC50?
Output: 0.1 to 1 µM

Input: Data request, read-out AC50, for O=C(Cc1ccc(F)cc1F)N1CC2=C(C1)CN(S(=O)(=O)c1cccnc1)C2
Output: 1 to 40 µM

Input: Could you share which AC50 value was measured for O=C(NCc1nccs1)N1CC2=C(C1)CN(S(=O)(=O)c1ccc3ncsc3c1)C2 ?
Output: 0.1 to 1 µM

Input: // lookup AC50 for O=C(N1CC2=C(C1)CN(S(=O)(=O)c1ccccn1)C2)C1(O)CC1
Output: 1 to 40 µM

Input: Fill in the blank: the reported AC50 of CC(=O)Nc1cc(S(=O)(=O)N2CC3=C(CN(C(=O)[C@H](O)c4ccccc4)C3)C2)ccc1F is ____.
Output: 1 to 40 µM

Input: I have this molecule here, Cc1cc(COC(=O)N2CC3=C(C2)CN(S(=O)(=O)c2ccc(OC(F)F)cc2)C3)nn1C , and I need its recorded AC50.
Output: 1 to 40 µM

Input: Query (molecule): COc1ccc(CNC(=O)N2CC3=C(C2)CN(S(=O)(=O)c2ccc(OC)c(OC)c2)C3)cc1 ; field requested: AC50
Output: 1 to 40 µM

Input: What does the data say about its AC50? Entry: CC(=O)Nc1ccc(S(=O)(=O)N2CC3=C(CN(C(=O)[C@H](O)c4ccccc4)C3)C2)cc1
Output: 1 to 40 µM

Input: So what's the measured AC50 for this one? Cc1ccc(F)c(S(=O)(=O)N2CC3=C(CN(C(=O)[C@H](O)c4ccccc4)C3)C2)c1
Output: ≤ 0.1 µM

Input: Need AC50 of COc1cccc(CNC(=O)N2CC3=C(C2)CN(S(=O)(=O)c2ccc4nsnc4c2)C3)c1 , thanks.
Output: 1 to 40 µM

Input: So what does the record say about AC50 for O=C(NCc1ccccc1F)N1CC2=C(C1)CN(S(=O)(=O)c1ccccn1)C2 ?
Output: 0.1 to 1 µM

Input: Which AC50 is listed for O=C(NCc1ccc(F)cc1)N1CC2=C(C1)CN(S(=O)(=O)c1ccc(C(F)(F)F)nc1)C2 ?
Output: 1 to 40 µM

Input: Consider the molecule shown here: Cc1cc(CNC(=O)N2CC3=C(C2)CN(S(=O)(=O)c2ccc(OC(F)F)cc2)C3)on1 What is its recorded AC50?
Output: 0.1 to 1 µM

Input: Look up AC50: O=C(Cc1ccccn1)N1CC2=C(C1)CN(S(=O)(=O)c1ccc(OC(F)F)cc1)C2
Output: 0.1 to 1 µM

Input: Given the entry O=C(NCc1ccc(F)cc1)N1CC2=C(C1)CN(S(=O)(=O)c1ccc3nsnc3c1)C2 , report its measured AC50.
Output: 1 to 40 µM

----------
Biological target: PKR(R510Q) (Homo sapiens, UniProt P30613, R510Q)
Experiment: Luminescence Biochemical Assay (Kinase Glo Plus), PKR R510Q mutant
Settings: without FBP, read-out: AC50 LUM KGP woFBP MAX % FOLD mean
Readout kind: Emax

Input: Can you share its Emax? I mean this molecule: O=C([C@@H](O)c1ccc2c(c1)NCCO2)N1CC2=C(C1)CN(S(=O)(=O)c1ccc(OC(F)F)cc1)C2 (single isomer, unassigned) [Example 9-5]
Output: 250 to 500%

Input: State the recorded Emax for this entry: O=C(OCC1CC1)N1CC2=C(C1)CN(S(=O)(=O)c1ccc(OC(F)F)cc1)C2 [Example 22-2]
Output: 250 to 500%

Input: Look at this molecule and give its reported Emax. N#Cc1ccc(S(=O)(=O)N2CC3=C(CN(C(=O)[C@H](O)c4ccccc4)C3)C2)cc1 [Example 18-45]
Output: 250 to 500%

Input: Recorded Emax for COc1ccc(CNC(=O)N2CC3=C(C2)CN(S(=O)(=O)c2ccc(OC)c(OC)c2)C3)cc1 [Example 20-31] , please?
Output: 75 to 250%

Input: Requested read-out: Emax. Entry: COc1ccc(CNC(=O)N2CC3=C(C2)CN(S(=O)(=O)c2ccc(F)cc2)C3)cc1 [Example 20-3]
Output: 250 to 500%

Input: Requested field: Emax. Item: O=C(NCc1ccc(F)cc1)N1CC2=C(C1)CN(S(=O)(=O)c1ccc3nsnc3c1)C2 [Example 20-28]
Output: 75 to 250%

Input: Look up Emax for this molecule: Cc1noc(C)c1S(=O)(=O)N1CC2=C(CN(C(=O)[C@H](O)c3ccccc3)C2)C1 [Example 18-44]
Output: 75 to 250%

Input: Could you tell me which Emax is on file for O=C([C@H](O)c1ccccc1)N1CC2=C(C1)CN(S(=O)(=O)c1cccnc1C(F)(F)F)C2 [Example 4-2] ?
Output: 75 to 250%

Input: Item under review: O=C(NCc1ccccc1F)N1CC2=C(C1)CN(S(=O)(=O)c1cccnc1)C2 [Example 21-37] . Reported Emax?
Output: 250 to 500%

Input: Query (molecule): Cc1cc(CNC(=O)N2CC3=C(C2)CN(S(=O)(=O)c2cccnc2)C3)no1 [Example 21-38] ; field requested: Emax
Output: 250 to 500%

----------
Biological target: PKR(R510Q) (Homo sapiens, UniProt P30613, R510Q)
Assay: Luminescence Biochemical Assay (Kinase Glo Plus), PKR R510Q mutant
Details: without FBP, read-out: AC50 LUM KGP woFBP AC50 μM gmean
Readout kind: AC50

Input: Param readout= AC50; system= PKR(R510Q) (Homo sapiens, UniProt P30613, R510Q); entry= Cc1ccc(CC(=O)N2CC3=C(C2)CN(S(=O)(=O)c2ccc(OC(F)F)cc2)C3)cn1 [Example 18-30] ; returns value.
Output: 0.1 to 1 µM

Input: Requested read-out AC50, target or system PKR(R510Q) (Homo sapiens, UniProt P30613, R510Q), entry COc1ccc(CNC(=O)N2CC3=C(C2)CN(S(=O)(=O)c2ccc4ncsc4c2)C3)cc1 [Example 21-16]
Output: 0.1 to 1 µM

Input: // fetch PKR(R510Q) (Homo sapiens, UniProt P30613, R510Q) AC50 for O=C(NCc1cnco1)N1CC2=C(C1)CN(S(=O)(=O)c1ccc(F)cc1)C2 [Example 5-1]
Output: 1 to 40 µM

----------
Target: PKR(wt) (Homo sapiens)
Sequence (P30613 whole entry): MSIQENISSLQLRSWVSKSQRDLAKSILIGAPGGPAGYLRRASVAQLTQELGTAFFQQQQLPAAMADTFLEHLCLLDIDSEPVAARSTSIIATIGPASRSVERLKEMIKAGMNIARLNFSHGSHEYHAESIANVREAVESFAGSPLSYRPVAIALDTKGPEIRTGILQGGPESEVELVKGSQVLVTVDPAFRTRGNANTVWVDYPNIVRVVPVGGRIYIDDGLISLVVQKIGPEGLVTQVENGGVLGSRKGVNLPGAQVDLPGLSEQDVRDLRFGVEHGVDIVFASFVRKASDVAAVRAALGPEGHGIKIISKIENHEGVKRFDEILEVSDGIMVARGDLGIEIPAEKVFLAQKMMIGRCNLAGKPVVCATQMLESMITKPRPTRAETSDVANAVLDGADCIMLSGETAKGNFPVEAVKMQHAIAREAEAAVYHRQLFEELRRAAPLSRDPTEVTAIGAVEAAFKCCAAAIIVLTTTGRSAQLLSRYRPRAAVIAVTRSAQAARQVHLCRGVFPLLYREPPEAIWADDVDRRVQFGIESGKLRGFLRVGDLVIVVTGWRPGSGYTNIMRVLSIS
Test: Luminescence Biochemical Assay (Kinase Glo Plus), wild type PKR
Conditions: without FBP, 1.54 μM compound, read-out: AC50 LUM KGP woFBP % Fold@1.54 μM mean
I'd appreciate it if you could supply activation at 1.54 µM values for the items below.

Input: Suppose we examine the compound O=C(NCc1cccnc1)N1CC2=C(C1)CN(S(=O)(=O)c1ccc3ncsc3c1)C2 ; what activation at 1.54 µM value has been reported?
Output: 75 to 250%

Input: May I ask what activation at 1.54 µM has been recorded for O=C([C@H](O)c1ccccc1)N1CC2=C(C1)CN(S(=O)(=O)c1cccnc1)C2 ?
Output: 75 to 250%

Input: May I ask what activation at 1.54 µM has been recorded for O=C([C@H](O)c1ccccc1)N1CC2=C(C1)CN(S(=O)(=O)c1ccc(F)cc1F)C2 ?
Output: 75 to 250%

Input: // returns reported activation at 1.54 µM for input O=C([C@H](O)c1ccccc1)N1CC2=C(C1)CN(S(=O)(=O)c1ccc(Cl)s1)C2
Output: 75 to 250%

Input: Look at this compound and give its reported activation at 1.54 µM. O=C(N1CC2=C(C1)CN(S(=O)(=O)c1ccc3occc3c1)C2)C1(O)CC1
Output: 75 to 250%

Input: // query activation at 1.54 µM value for entry O=C(NCc1ccco1)N1CC2=C(C1)CN(S(=O)(=O)c1ccc(OC(F)F)cc1)C2
Output: 250 to 50000%

Input: Which activation at 1.54 µM reading was recorded for the compound O=C(NCc1ncco1)N1CC2=C(C1)CN(S(=O)(=O)c1ccc3ncsc3c1)C2 ?
Output: 250 to 50000%

Input: Need activation at 1.54 µM of O=C(OCc1cccnc1)N1CC2=C(C1)CN(S(=O)(=O)c1ccc3occc3c1)C2 , thanks.
Output: 250 to 50000%

Input: Consider the compound shown here: O=C([C@H](O)c1ccccc1)N1CC2=C(C1)CN(S(=O)(=O)c1ccc(C(F)(F)F)cc1)C2 What is its recorded activation at 1.54 µM?
Output: 75 to 250%

Input: Field request: activation at 1.54 µM | item: O=C([C@H]1CCCO1)N1CC2=C(C1)CN(S(=O)(=O)c1cccnc1)C2
Output: 75 to 250%

Input: # lookup: activation at 1.54 µM of O=C(C(F)c1ccccc1)N1CC2=C(C1)CN(S(=O)(=O)c1ccc(OC(F)F)cc1)C2 (centres unmarked)
Output: 250 to 50000%

Input: What does the record list as activation at 1.54 µM for O=C(NCc1nccs1)N1CC2=C(C1)CN(S(=O)(=O)c1ccc3ncsc3c1)C2 ?
Output: 75 to 250%

Input: Which activation at 1.54 µM value is on record for O=C(C1CCOCC1)N1CC2=C(C1)CN(S(=O)(=O)c1ccc3c(c1)NCCO3)C2 ?
Output: 75 to 250%

Input: Name the recorded activation at 1.54 µM for O=C(Cc1ccc[nH]1)N1CC2=C(C1)CN(S(=O)(=O)c1ccc(OC(F)F)cc1)C2 .
Output: 75 to 250%

Input: Any idea what its activation at 1.54 µM is? The compound is O=C(Cc1ncccn1)N1CC2=C(C1)CN(S(=O)(=O)c1ccc(OC(F)F)cc1)C2
Output: 250 to 50000%

Input: # activation at 1.54 µM lookup, item O=C([C@H](O)c1ccc(F)cc1)N1CC2=C(C1)CN(S(=O)(=O)c1cccnc1)C2
Output: 75 to 250%

Input: // returns reported activation at 1.54 µM for input O=C(C(O)c1ccc(C(F)(F)F)cc1)N1CC2=C(C1)CN(S(=O)(=O)c1ccc(OC(F)F)cc1)C2 (centres unmarked)
Output: 75 to 250%

Input: Please report the recorded activation at 1.54 µM for O=C([C@H](O)c1ccc(F)cc1)N1CC2=C(C1)CN(S(=O)(=O)c1ccc(C(F)(F)F)nc1)C2 .
Output: 75 to 250%

Input: Reported activation at 1.54 µM for O=C(Cn1cnnn1)N1CC2=C(C1)CN(S(=O)(=O)c1ccc(OC(F)F)cc1)C2 : what is it?
Output: 250 to 50000%

Input: Can you share its activation at 1.54 µM? I mean this compound: N#Cc1ccccc1S(=O)(=O)N1CC2=C(CN(C(=O)[C@H](O)c3ccccc3)C2)C1
Output: 75 to 250%

Input: For the compound shown here, O=C([C@H]1CCCO1)N1CC2=C(C1)CN(S(=O)(=O)c1ccccn1)C2 , give the reported activation at 1.54 µM.
Output: 75 to 250%

Input: Name the recorded activation at 1.54 µM for O=C([C@H](O)c1ccccc1)N1CC2=C(C1)CN(S(=O)(=O)c1ccc(Cl)cc1)C2 .
Output: 75 to 250%

Input: Record request: activation at 1.54 µM value, item O=C(c1csc(Nc2cccnc2)n1)N1CC2=C(C1)CN(S(=O)(=O)c1ccc3occc3c1)C2
Output: 250 to 50000%

Input: Tell me the measured activation at 1.54 µM of O=C(Cc1cccnc1)N1CC2=C(C1)CN(S(=O)(=O)c1ccccn1)C2 , please.
Output: 75 to 250%

Input: What value of activation at 1.54 µM has been recorded for this entry: O=C([C@H](O)c1ccc(F)cc1)N1CC2=C(C1)CN(S(=O)(=O)c1ccccn1)C2
Output: 75 to 250%

Input: // returns reported activation at 1.54 µM for input O=C([C@H](O)c1ccccc1)N1CC2=C(C1)CN(S(=O)(=O)c1ccc(C(F)(F)F)nc1)C2
Output: 75 to 250%

Input: Given the compound O=C(NCc1ccco1)N1CC2=C(C1)CN(S(=O)(=O)c1ccc3ncsc3c1)C2 , what is its reported activation at 1.54 µM?
Output: 250 to 50000%

Input: Entry under review: NS(=O)(=O)c1ccc(S(=O)(=O)N2CC3=C(CN(C(=O)[C@H](O)c4ccccc4)C3)C2)cc1 . Reported activation at 1.54 µM?
Output: 75 to 250%

Input: // query activation at 1.54 µM value for entry O=C([C@H](O)c1ccccc1)N1CC2=C(C1)CN(S(=O)(=O)c1ccc(F)c(F)c1)C2
Output: 75 to 250%

Origin of the recorded values: patent US12122778B2
